Values compiled from PubChem BioAssay AID1963836.

# System: 857933-349-R-J2-PDC complex spheroid viability
# Measurement description: Anticancer human tumor 857933-349-R-J2-PDC patient-derived colon adenocarcinoma cell line growth inhibition [POLQ]
# Test context: second compound 1 µM; first compound 10 µM; stronger effect = lower value
Please respond with 1 when measured viability, T/C is strictly beneath 60%, and with -1 in all other cases.

Sample answers from the record:
O=C(c1cc(Cc2n[nH]c(=O)c3ccccc23)ccc1F)N1CCN(C(=O)C2CC2)CC1 + Cc1cccc(N(C)C(=O)C2C(O)CCN2c2nc(C)cc(C(F)(F)F)c2C#N)c1; -1
COc1cc2cc(C(=O)CCC(=O)O)sc2cc1OC + COC1C(OC(N)=O)C(O)C(Oc2ccc3c(O)c(NC(=O)c4ccc(O)c(CC=C(C)C)c4)c(=O)oc3c2C)OC1(C)C; -1
CCc1cc2c(N3CCc4c(cc(Cn5ccnc5)cc4-c4cn(C)nc4C(F)(F)F)C3=O)cc(C)nc2c(OC)n1 + COC1C(OC(N)=O)C(O)C(Oc2ccc3c(O)c(NC(=O)c4ccc(O)c(CC=C(C)C)c4)c(=O)oc3c2C)OC1(C)C; 1
CCCS(=O)(=O)Nc1ccc(F)c(C(=O)c2c[nH]c3ncc(-c4ccc(Cl)cc4)cc23)c1F + Nc1ccc(C#CCN(C(=O)Cc2ncc(C(F)(F)F)cc2C(F)(F)F)c2ccc(F)cc2)nn1; 1
Nc1ccn(C2OC(CO)C(O)C2(F)F)c(=O)n1 (configuration not stated) + Cc1cccc(N(C)C(=O)C2C(O)CCN2c2nc(C)cc(C(F)(F)F)c2C#N)c1; 1

# evaluate next
Dear colleague, could you confirm whether viability, T/C of CNCc1ccc(-c2[nH]c3cc(F)cc4c3c2CCNC4=O)cc1 + COC1C(OC(N)=O)C(O)C(Oc2ccc3c(O)c(NC(=O)c4ccc(O)c(CC=C(C)C)c4)c(=O)oc3c2C)OC1(C)C falls below 60%? Thanks.
-1

----------
# Tested on: 857933-349-R-J2-PDC complex spheroid viability
# Measurement description: Anticancer human tumor 857933-349-R-J2-PDC cell line growth inhibition [POLQ];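 note: spheroids exposed to compounds for seven days before readout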
# Test context: second compound 0.0316 µM; first compound 10 µM; stronger effect = lower value
Here, each record is paired with measured viability, T/C data.
Numbers only here, please. The scale is %.

O=c1[nH]cc(F)c(=O)[nH]1 + COC1C(OC(N)=O)C(O)C(Oc2ccc3c(O)c(NC(=O)c4ccc(O)c(CC=C(C)C)c4)c(=O)oc3c2C)OC1(C)C; 24.6

Look up 857933-349-R-J2-PDC complex spheroid viability data: viability, T/C of COc1ccc([C@@H](O)c2cc(-c3ncnc4cc(N5CCOCC5)ccc34)c(F)cc2Cl)nn1 + COC1C(OC(N)=O)C(O)C(Oc2ccc3c(O)c(NC(=O)c4ccc(O)c(CC=C(C)C)c4)c(=O)oc3c2C)OC1(C)C , then report it.
65.3

Look up 857933-349-R-J2-PDC complex spheroid viability data: viability, T/C of CCCS(=O)(=O)Nc1ccc(F)c(C(=O)c2c[nH]c3ncc(-c4ccc(Cl)cc4)cc23)c1F + COC1C(OC(N)=O)C(O)C(Oc2ccc3c(O)c(NC(=O)c4ccc(O)c(CC=C(C)C)c4)c(=O)oc3c2C)OC1(C)C , then report it.
15.7

----------
Here, each record is paired with measured viability, T/C data.
# Test system: 857933-349-R-J2-PDC complex spheroid viability
# Measurement description: Anticancer human tumor 857933-349-R-J2-PDC cell line growth inhibition [POLQ];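 note: spheroids exposed to compounds for seven days before readout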
# Test context: second compound 1 µM; first compound 0.316 µM; stronger effect = lower value
Numbers only here, please. The scale is %.

Known results for compounds:
COc1cccc(OCCCN)c1-c1cc(Nc2cnc(C#N)cn2)n[nH]1 + Cc1cccc(N(C)C(=O)C2C(O)CCN2c2nc(C)cc(C(F)(F)F)c2C#N)c1; 56.4
CNCc1ccc(-c2[nH]c3cc(F)cc4c3c2CCNC4=O)cc1 + Cc1cccc(N(C)C(=O)C2C(O)CCN2c2nc(C)cc(C(F)(F)F)c2C#N)c1; 90.7
CCc1c2c(nc3ccc(O)cc13)-c1cc3c(c(=O)n1C2)COC(=O)[C@]3(O)CC + COC1C(OC(N)=O)C(O)C(Oc2ccc3c(O)c(NC(=O)c4ccc(O)c(CC=C(C)C)c4)c(=O)oc3c2C)OC1(C)C; 16.2

# ---- query compound ----
Look up 857933-349-R-J2-PDC complex spheroid viability data: viability, T/C of CCc1cc2c(N3CCc4c(cc(Cn5ccnc5)cc4-c4cn(C)nc4C(F)(F)F)C3=O)cc(C)nc2c(OC)n1 + Nc1ccc(C#CCN(C(=O)Cc2ncc(C(F)(F)F)cc2C(F)(F)F)c2ccc(F)cc2)nn1 , then report it.
86.8

----------
# Test system: 857933-349-R-J2-PDC complex spheroid viability
# Measurement description: Anticancer human tumor 857933-349-R-J2-PDC cell line growth inhibition [POLQ];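 note: spheroids exposed to compounds for seven days before readout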
# Test context: second compound 0.0316 µM; first compound 0.0316 µM; stronger effect = lower value
Metric name: viability, T/C (%)
Numbers only here, please. The scale is %.

Known results for compounds:
C=CCn1c(=O)c2cnc(Nc3ccc(N4CCN(C)CC4)cc3)nc2n1-c1cccc(C(C)(C)O)n1 + Nc1ccc(C#CCN(C(=O)Cc2ncc(C(F)(F)F)cc2C(F)(F)F)c2ccc(F)cc2)nn1; 91.4
Cn1ncnc1[C@H]1c2n[nH]c(=O)c3cc(F)cc(c23)N[C@@H]1c1ccc(F)cc1 + COC1C(OC(N)=O)C(O)C(Oc2ccc3c(O)c(NC(=O)c4ccc(O)c(CC=C(C)C)c4)c(=O)oc3c2C)OC1(C)C; 90.5

# ---- query compound ----
Look up 857933-349-R-J2-PDC complex spheroid viability data: viability, T/C of CC(C)n1c(=O)n(C)c2cnc3cc(F)c(-c4ccc(OCCCN5CCCCC5)nc4)cc3c21 + Nc1ccc(C#CCN(C(=O)Cc2ncc(C(F)(F)F)cc2C(F)(F)F)c2ccc(F)cc2)nn1 , then report it.
88.3

----------
Here, each record is paired with measured viability, T/C data.
# System: 857933-349-R-J2-PDC complex spheroid viability
# Measurement description: Anticancer human tumor 857933-349-R-J2-PDC cell line growth inhibition [POLQ];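 note: spheroids exposed to compounds for seven days before readout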
# Test context: second compound 0.0316 µM; first compound 10 µM; stronger effect = lower value
Numbers only here, please. The scale is %.

Known results for compounds:
COc1cc2cc(C(=O)CCC(=O)O)sc2cc1OC + Cc1cccc(N(C)C(=O)C2C(O)CCN2c2nc(C)cc(C(F)(F)F)c2C#N)c1; 84.1
CC1COCCN1c1cc(C2(O)CC3CCC(C2)O3)c2cnn(-c3ccn[nH]3)c2n1 (stereo not drawn) + COC1C(OC(N)=O)C(O)C(Oc2ccc3c(O)c(NC(=O)c4ccc(O)c(CC=C(C)C)c4)c(=O)oc3c2C)OC1(C)C; 49.7

# ---- query compound ----
Quick one: give measured viability, T/C for CC(C)n1c(=O)n(C)c2cnc3cc(F)c(-c4ccc(OCCCN5CCCCC5)nc4)cc3c21 + COC1C(OC(N)=O)C(O)C(Oc2ccc3c(O)c(NC(=O)c4ccc(O)c(CC=C(C)C)c4)c(=O)oc3c2C)OC1(C)C
111
